# Test system: K-562
# assay.summary: CellTiter-Blue assay, haematological cell line
# Type: cell-based
# condition.details: Homo sapiens, K562, 96 h; K-562 (CML), four days treatment
measured.property: pIC50
Conceptually, pIC50 converts a concentration in mol/L into minus its log10.

Cc1cc(F)c2[nH]ccc2c1-c1nc(C(N)=O)c(-c2ccc(N3CCNC(C)(C)C3)cc2)o1: 6.66

Now let's try a different one.
Prompt line: Quick one: pIC50 for `Cc1ccc2[nH]ccc2c1-c1nc(C(N)=O)c(-c2ccc(N3CCNC(C)(C)C3)cc2)o1` ?
Response line: 6.49

----------
# Tested on: KG-1
# assay.summary: CellTiter-Blue assay, haematological cell line
# Assay type: cell-based
# condition.details: Homo sapiens, 96 h; KG-1 (AML), four days treatment
measured.property: pIC50
Conceptually, pIC50 converts a concentration in mol/L into minus its log10.

Cc1ccc2[nH]ccc2c1-c1nc(C(N)=O)c(-c2ccc(N3CCNC(C)(C)C3)cc2)o1 [Example 2]: 7.12

Prompt line: Form field: pIC50 recorded for Cc1cc(F)c2[nH]ccc2c1-c1nc(C(N)=O)c(-c2ccc(N3CCNC(C)(C)C3)cc2)o1 [Example 7] with KG-1 (enter value)
Response line: 6.86

----------
# measurement.target: FLT3 kinase (Homo sapiens (Human), UniProt P36888)
# Sequence (P36888 27-993): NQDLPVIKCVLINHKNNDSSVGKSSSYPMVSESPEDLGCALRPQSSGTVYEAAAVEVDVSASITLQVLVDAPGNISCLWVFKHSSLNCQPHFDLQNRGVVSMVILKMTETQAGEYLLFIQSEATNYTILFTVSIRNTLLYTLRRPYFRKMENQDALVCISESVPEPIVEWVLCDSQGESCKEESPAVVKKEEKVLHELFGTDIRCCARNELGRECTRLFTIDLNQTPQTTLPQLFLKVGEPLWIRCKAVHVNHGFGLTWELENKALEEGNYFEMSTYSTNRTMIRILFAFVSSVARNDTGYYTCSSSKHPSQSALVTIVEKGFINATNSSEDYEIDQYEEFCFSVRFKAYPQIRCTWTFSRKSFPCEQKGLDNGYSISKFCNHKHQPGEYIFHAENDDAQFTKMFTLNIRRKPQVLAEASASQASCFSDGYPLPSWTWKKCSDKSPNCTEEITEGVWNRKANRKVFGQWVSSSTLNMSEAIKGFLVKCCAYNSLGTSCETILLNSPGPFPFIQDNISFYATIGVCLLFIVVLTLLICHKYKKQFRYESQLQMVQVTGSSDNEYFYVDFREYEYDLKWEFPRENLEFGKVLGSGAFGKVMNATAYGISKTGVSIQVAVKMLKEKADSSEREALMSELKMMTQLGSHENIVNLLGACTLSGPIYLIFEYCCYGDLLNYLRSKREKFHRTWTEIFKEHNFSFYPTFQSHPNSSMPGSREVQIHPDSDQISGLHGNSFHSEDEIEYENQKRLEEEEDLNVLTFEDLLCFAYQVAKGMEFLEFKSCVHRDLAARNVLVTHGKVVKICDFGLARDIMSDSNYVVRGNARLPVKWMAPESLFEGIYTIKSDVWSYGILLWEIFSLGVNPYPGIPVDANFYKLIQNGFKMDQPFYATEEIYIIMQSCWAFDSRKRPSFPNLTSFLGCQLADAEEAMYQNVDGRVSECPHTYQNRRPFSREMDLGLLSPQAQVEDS
# assay.summary: FLT3 kinase 33P-ATP filter assay (Reaction Biology Corp.)
# Format: biochemical
measured.property: IC50

Sample records with IC50:
Cc1ccc2[nH]ccc2c1-c1nc(C(N)=O)c(-c2ccc(N3CCNC(C)(C)C3)cc2)o1: 0.77 nM
NC(=O)c1nc(-c2cccc3[nH]ccc23)oc1-c1ccc(N2CCNCC2)cc1 [Example M-12, reference compound]: 1.6 nM
Cc1c[nH]c2cccc(-c3nc(C(N)=O)c(-c4ccc(N5CCNC(C)(C)C5)cc4)o3)c12: 0.55 nM
CC1(C)CN(c2ccc(-c3oc(-c4ccc(C(F)(F)F)c5[nH]ccc45)nc3C(N)=O)cc2)CCN1: 2.8 nM
CC1(C)CN(c2ccc(-c3oc(-c4ccc(F)c5[nH]ccc45)nc3C(N)=O)cc2)CCN1: 0.821 nM

Prompt line: Quick one: IC50 for `COc1ccc(-c2nc(C(N)=O)c(-c3ccc(N4CCNC(C)(C)C4)cc3)o2)c2cc[nH]c12` ?
Response line: 0.89 nM

Prompt line: Now give it for `Cc1cc(F)c2[nH]ccc2c1-c1nc(C(N)=O)c(-c2ccc(N3CCNC(C)(C)C3)cc2)o1` too.
Response line: 0.48 nM

----------
// values below are reported efflux ratio
# assay.summary: Caco-2 permeability assay
# Format: in vitro ADME
# condition.details: human, B2A:A2B, read-out: Caco2 Efflux ratio
Lab note: record just the number, no unit beside it.

Sample records with efflux ratio:
CCc1ccc2[nH]ccc2c1-c1nc(C(N)=O)c(-c2ccc(N3CCNC(C)(C)C3)cc2)o1: 6.91
CC1(C)CN(c2ccc(-c3oc(-c4ccc(C(F)(F)F)c5[nH]ccc45)nc3C(N)=O)cc2)CCN1: 33.5

Prompt line: Quick one: efflux ratio for `Cc1ccc2[nH]ccc2c1-c1nc(C(N)=O)c(-c2ccc(N3CCNC(C)(C)C3)cc2)o1` ?
Response line: 4.99

Prompt line: Now give it for `Cc1cc(C)c2[nH]ccc2c1-c1nc(C(N)=O)c(-c2ccc(N3CCNC(C)(C)C3)cc2)o1` too.
Response line: 4.04

Prompt line: Now give it for `CC1(C)CN(c2ccc(-c3oc(-c4ccc(F)c5[nH]ccc45)nc3C(N)=O)cc2)CCN1` too.
Response line: 6.62

Prompt line: Now give it for `CC1(C)CN(c2ccc(-c3oc(-c4ccc(Cl)c5[nH]ccc45)nc3C(N)=O)cc2)CCN1` too.
Response line: 4.32

Prompt line: Now give it for NC(=O)c1nc(-c2cccc3[nH]ccc23)oc1-c1ccc(N2CCNCC2)cc1 [Example M-12, reference compound] too.
Response line: 51.7

Prompt line: Now give it for `CC1(C)CN(c2ccc(-c3oc(-c4c(F)ccc5[nH]ccc45)nc3C(N)=O)cc2)CCN1` too.
Response line: 32.2

Prompt line: Now give it for `Cc1c[nH]c2cccc(-c3nc(C(N)=O)c(-c4ccc(N5CCNC(C)(C)C5)cc4)o3)c12` too.
Response line: 4.45

----------
# Test system: JURKAT
# assay.summary: CellTiter-Blue assay, haematological cell line
# Assay type: cell-based
# condition.details: Homo sapiens, 96 h; JURKAT (ALL), four days treatment
// values below are reported IC50
Note: unit nM is implicit; provide only the numeric part.

Cc1ccc2[nH]ccc2c1-c1nc(C(N)=O)c(-c2ccc(N3CCNC(C)(C)C3)cc2)o1: 91

Now let's try a different one.
Prompt line: Form field: IC50 recorded for `Cc1cc(F)c2[nH]ccc2c1-c1nc(C(N)=O)c(-c2ccc(N3CCNC(C)(C)C3)cc2)o1` with JURKAT (enter value)
Response line: 93

----------
# Test system: NCI-H929
# assay.summary: CellTiter-Blue assay, haematological cell line
# Format: cell-based
# condition.details: Homo sapiens, 96 h; NCI-H929 (MM), four days treatment
measured.property: pIC50
Conceptually, pIC50 converts a concentration in mol/L into minus its log10.

Cc1ccc2[nH]ccc2c1-c1nc(C(N)=O)c(-c2ccc(N3CCNC(C)(C)C3)cc2)o1 [Example 2]: 6.07

Now let's try a different one.
Prompt line: Quick one: pIC50 for Cc1cc(F)c2[nH]ccc2c1-c1nc(C(N)=O)c(-c2ccc(N3CCNC(C)(C)C3)cc2)o1 [Example 7] ?
Response line: 5.85

----------
# Test system: RAJI
# assay.summary: CellTiter-Blue assay, haematological cell line
# Assay type: cell-based
# condition.details: Homo sapiens, 96 h; RAJI (NHL), four days treatment
// values below are reported IC50
Note: unit nM is implicit; provide only the numeric part.

Cc1cc(F)c2[nH]ccc2c1-c1nc(C(N)=O)c(-c2ccc(N3CCNC(C)(C)C3)cc2)o1 [Example 7]: 1800

Now let's try a different one.
Prompt line: Quick one: IC50 for Cc1ccc2[nH]ccc2c1-c1nc(C(N)=O)c(-c2ccc(N3CCNC(C)(C)C3)cc2)o1 [Example 2] ?
Response line: 2850

----------
// values below are reported pIC50
# Tested on: OCI-AML2
# assay.summary: CellTiter-Blue assay, haematological cell line
# Type: cell-based
# condition.details: Homo sapiens, 96 h; OCI-AML2 (AML), four days treatment
Conceptually, pIC50 converts a concentration in mol/L into minus its log10.

Cc1cc(F)c2[nH]ccc2c1-c1nc(C(N)=O)c(-c2ccc(N3CCNC(C)(C)C3)cc2)o1: 7.04

Now let's try a different one.
Prompt line: Quick one: pIC50 for `Cc1ccc2[nH]ccc2c1-c1nc(C(N)=O)c(-c2ccc(N3CCNC(C)(C)C3)cc2)o1` ?
Response line: 6.99

----------
# assay.summary: Caco-2 permeability assay
# Type: in vitro ADME
# condition.details: human, A2B, read-out: Caco2 A2B Papp
measured.property: Papp A→B (×10⁻⁶ cm/s)
Note: unit ×10⁻⁶ cm/s is implicit; provide only the numeric part.

Sample records with Papp A→B:
CC1(C)CN(c2ccc(-c3oc(-c4ccc(F)c5[nH]ccc45)nc3C(N)=O)cc2)CCN1: 1.17
Cc1c[nH]c2cccc(-c3nc(C(N)=O)c(-c4ccc(N5CCNC(C)(C)C5)cc4)o3)c12: 2.07
Cc1ccc2[nH]ccc2c1-c1nc(C(N)=O)c(-c2ccc(N3CCNC(C)(C)C3)cc2)o1: 1.98

Prompt line: Quick one: Papp A→B for `Cc1cc(F)c2[nH]ccc2c1-c1nc(C(N)=O)c(-c2ccc(N3CCNC(C)(C)C3)cc2)o1` ?
Response line: 0.683

Prompt line: Now give it for NC(=O)c1nc(-c2cccc3[nH]ccc23)oc1-c1ccc(N2CCNCC2)cc1 [Example M-12, reference compound] too.
Response line: 1.13

Prompt line: Now give it for `CCc1ccc2[nH]ccc2c1-c1nc(C(N)=O)c(-c2ccc(N3CCNC(C)(C)C3)cc2)o1` too.
Response line: 0.519

Prompt line: Now give it for `CC1(C)CN(c2ccc(-c3oc(-c4cccc5[nH]ccc45)nc3C(N)=O)cc2)CCN1` too.
Response line: 2.47

Prompt line: Now give it for `CC1(C)CN(c2ccc(-c3oc(-c4ccc(C(F)(F)F)c5[nH]ccc45)nc3C(N)=O)cc2)CCN1` too.
Response line: 0.036

Prompt line: Now give it for `CC1(C)CN(c2ccc(-c3oc(-c4c(F)ccc5[nH]ccc45)nc3C(N)=O)cc2)CCN1` too.
Response line: 0.707

Prompt line: Now give it for `CCc1ccc(-c2nc(C(N)=O)c(-c3ccc(N4CCNC(C)(C)C4)cc3)o2)c2cc[nH]c12` too.
Response line: 0.37

Prompt line: Now give it for `COc1ccc(-c2nc(C(N)=O)c(-c3ccc(N4CCNC(C)(C)C4)cc3)o2)c2cc[nH]c12` too.
Response line: 1.36

Prompt line: Now give it for `CC1(C)CN(c2ccc(-c3oc(-c4ccc(Cl)c5[nH]ccc45)nc3C(N)=O)cc2)CCN1` too.
Response line: 0.64

Prompt line: Now give it for `Cc1cc(C)c2[nH]ccc2c1-c1nc(C(N)=O)c(-c2ccc(N3CCNC(C)(C)C3)cc2)o1` too.
Response line: 0.514
